Data provenance: patent US20210009564A1

Reported IC50 values for a set of compounds
Target: Human Calpain 2/NS1 (Homo sapiens)
Experiment: Calpain inhibition, continuous fluorescence (FRET substrate) assay, calpain 2
Conditions: SensoLyte 520 FRET substrate, 25C

// worked examples, IC50 included
NC(=O)C(=O)C(Cc1ccccc1)NC(=O)c1nsnc1-c1ccc(F)cc1 (centres unmarked) ... < 3 µM
COC(=O)C(=O)C(Cc1ccccc1)NC(=O)c1cn(C2CC2)nc1-c1ccccc1 (centres unmarked) ... < 3 µM
O=C(O)C(=O)C(Cc1ccccc1)NC(=O)c1nsnc1-c1cccc2oc(=O)[nH]c12 (centres unmarked) ... < 3 µM
Cc1nc(-c2ccoc2C)c(C(=O)NC(Cc2ccccc2)C(=O)C(N)=O)o1 (centres unmarked) ... < 3 µM
Cn1cc(C(=O)NC(Cc2ccccc2)C(=O)C(N)=O)c(-c2cccc3c2OC(C)(C)O3)n1 (centres unmarked) ... < 3 µM

Prompt: Can you look up the measured IC50 of Cn1ncc2c(-c3nn(C(F)F)cc3C(=O)NC(Cc3ccccc3)C(=O)C(N)=O)cccc21 (centres unmarked) for me?
Response: < 3 µM

Prompt: Can you look up the measured IC50 of NC(=O)C(=O)C(Cc1ccccc1)NC(=O)c1cn(C(F)F)nc1-c1ccoc1Cl (centres unmarked) for me?
Response: < 3 µM

Prompt: Can you look up the measured IC50 of NC(=O)C(=O)C(Cc1ccccc1)NC(=O)c1nsnc1-c1cccc2c1CC(=O)N2 (centres unmarked) for me?
Response: < 3 µM

* * *

Reported IC50 values for a set of molecules
Molecular target: Human Calpain 2/NS1 (Homo sapiens)
Sequence (P17655 1-700): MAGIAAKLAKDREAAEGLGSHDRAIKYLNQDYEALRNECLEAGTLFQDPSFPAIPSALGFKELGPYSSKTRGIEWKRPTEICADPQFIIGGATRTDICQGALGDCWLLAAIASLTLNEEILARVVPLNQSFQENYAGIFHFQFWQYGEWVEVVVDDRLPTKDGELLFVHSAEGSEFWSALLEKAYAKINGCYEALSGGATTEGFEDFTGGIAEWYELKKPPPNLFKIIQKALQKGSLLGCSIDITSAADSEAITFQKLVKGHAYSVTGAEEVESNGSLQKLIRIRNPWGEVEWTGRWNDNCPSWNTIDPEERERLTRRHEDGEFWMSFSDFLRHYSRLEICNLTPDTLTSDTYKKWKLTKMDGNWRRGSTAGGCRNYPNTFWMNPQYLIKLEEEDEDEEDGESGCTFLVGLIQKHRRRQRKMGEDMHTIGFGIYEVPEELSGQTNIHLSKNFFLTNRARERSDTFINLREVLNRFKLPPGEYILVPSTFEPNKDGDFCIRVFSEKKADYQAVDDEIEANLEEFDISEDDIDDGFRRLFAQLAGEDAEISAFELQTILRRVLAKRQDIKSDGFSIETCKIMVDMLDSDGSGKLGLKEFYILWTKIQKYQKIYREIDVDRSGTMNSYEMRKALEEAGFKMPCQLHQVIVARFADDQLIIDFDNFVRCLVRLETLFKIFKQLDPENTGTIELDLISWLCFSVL
Sequence (P04632 1-268 partner): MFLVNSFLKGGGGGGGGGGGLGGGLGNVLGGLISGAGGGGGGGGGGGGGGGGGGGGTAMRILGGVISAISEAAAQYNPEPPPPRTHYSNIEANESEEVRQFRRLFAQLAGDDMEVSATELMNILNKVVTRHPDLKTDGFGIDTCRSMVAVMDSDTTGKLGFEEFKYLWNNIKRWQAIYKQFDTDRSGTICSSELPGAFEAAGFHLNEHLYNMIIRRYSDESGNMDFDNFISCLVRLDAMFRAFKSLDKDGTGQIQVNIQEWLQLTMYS
Assay: Calpain inhibition, continuous fluorescence (FRET substrate) assay, calpain 2
Details: SensoLyte 520 FRET substrate, 25C
Where a name gives a salt, the structure may show the parent alone.

// worked examples, IC50 included
Cc1nc(-c2ccccc2F)c(C(=O)NC(Cc2cccc(F)c2)C(=O)C(N)=O)o1 (centres unmarked) ... < 3 µM
Cn1cc(C(=O)NC(Cc2ccccc2)C(=O)C(N)=O)c(-c2cccc3ncsc23)n1 (centres unmarked) ... < 3 µM
Cn1cc(C(=O)NC(Cc2ccccc2)C(=O)C(N)=O)c(N2CCNCC2)n1 (centres unmarked) [Compound 2, HYDROCHLORIDE] ... 3 to 10 µM
Cn1cc(C(=O)NC(Cc2ccccc2)C(=O)C(=O)O)c(-c2cccc(F)c2)n1 (centres unmarked) ... < 3 µM
O=C(NC(Cc1ccccc1)C(=O)c1ncco1)c1nsnc1-c1ccccc1 (centres unmarked) ... > 10 µM
COc1cccc(-c2nc(C)oc2C(=O)NC(Cc2ccccc2)C(=O)C(N)=O)c1F (centres unmarked) ... < 3 µM
Cc1cc(C(=O)NC(Cc2ccccc2)C(=O)C(N)=O)nn1-c1ncc(-c2ccccc2)cn1 (centres unmarked) ... < 3 µM

API: the following record is the query input.
Prompt: Can you look up the measured IC50 of Cc1occc1-c1nsnc1C(=O)NC(Cc1ccccc1)C(=O)C(N)=O (centres unmarked) for me?
Response: < 3 µM

* * *

Molecular target: Human Calpain 1/NS1 (Homo sapiens, UniProt P07384)
Sequence (P07384 1-714): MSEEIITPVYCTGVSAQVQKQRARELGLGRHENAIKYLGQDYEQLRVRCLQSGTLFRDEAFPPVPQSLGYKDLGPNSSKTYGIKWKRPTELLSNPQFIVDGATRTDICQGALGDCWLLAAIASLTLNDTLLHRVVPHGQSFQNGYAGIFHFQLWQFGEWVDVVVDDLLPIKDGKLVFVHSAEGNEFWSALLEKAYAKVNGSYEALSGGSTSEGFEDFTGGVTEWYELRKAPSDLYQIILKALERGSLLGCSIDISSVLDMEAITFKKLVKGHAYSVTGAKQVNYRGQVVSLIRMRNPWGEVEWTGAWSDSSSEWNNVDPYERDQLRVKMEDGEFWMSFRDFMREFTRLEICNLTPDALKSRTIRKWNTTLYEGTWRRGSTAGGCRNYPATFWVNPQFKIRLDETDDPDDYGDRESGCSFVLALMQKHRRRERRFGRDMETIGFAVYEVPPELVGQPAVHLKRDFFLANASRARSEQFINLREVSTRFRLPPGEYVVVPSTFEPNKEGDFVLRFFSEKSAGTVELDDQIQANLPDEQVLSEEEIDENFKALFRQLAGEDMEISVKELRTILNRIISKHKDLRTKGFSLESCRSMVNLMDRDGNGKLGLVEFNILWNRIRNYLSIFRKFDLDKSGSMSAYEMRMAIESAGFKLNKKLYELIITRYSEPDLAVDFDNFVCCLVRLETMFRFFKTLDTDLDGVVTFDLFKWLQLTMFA
Sequence (P04632 1-268 partner): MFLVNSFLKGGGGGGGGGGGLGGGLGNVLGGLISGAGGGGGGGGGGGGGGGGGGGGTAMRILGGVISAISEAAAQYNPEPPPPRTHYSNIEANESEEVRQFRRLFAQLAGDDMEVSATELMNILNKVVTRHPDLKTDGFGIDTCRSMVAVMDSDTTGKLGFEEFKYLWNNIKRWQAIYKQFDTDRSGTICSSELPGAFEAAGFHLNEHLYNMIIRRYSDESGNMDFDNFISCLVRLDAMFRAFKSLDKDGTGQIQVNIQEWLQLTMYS
Test: Calpain inhibition, continuous fluorescence (FRET substrate) assay, calpain 1
Conditions: SensoLyte 520 FRET substrate, 25C
Reported IC50 values for a set of compounds

// worked examples, IC50 included
O=C(NC(Cc1ccccc1)C(=O)CO)c1nsnc1-c1ccccc1 (centres unmarked) [Compound 111] ... 3 to 10 µM
COC(=O)C(=O)C(Cc1ccccc1)NC(=O)c1cn(C)nc1-c1cccc(F)c1 (centres unmarked) [Compound 74] ... < 3 µM
Cc1occc1-c1nn(C)cc1C(=O)NC(Cc1ccccc1)C(=O)C(N)=O (centres unmarked) [Compound 28] ... < 3 µM

Prompt: Can you look up the measured IC50 of O=C(O)C(=O)C(Cc1ccccc1)NC(=O)c1nsnc1-c1ccccc1 (centres unmarked) [Compound 67] for me?
Response: < 3 µM

Prompt: Can you look up the measured IC50 of NC(=O)C(=O)C(Cc1ccccc1)NC(=O)c1nsnc1-c1cccc2c1CC(=O)N2 (centres unmarked) [Compound 115] for me?
Response: < 3 µM

* * *

Target: Human Calpain 2/NS1 (Homo sapiens)
Sequence (P17655 1-700): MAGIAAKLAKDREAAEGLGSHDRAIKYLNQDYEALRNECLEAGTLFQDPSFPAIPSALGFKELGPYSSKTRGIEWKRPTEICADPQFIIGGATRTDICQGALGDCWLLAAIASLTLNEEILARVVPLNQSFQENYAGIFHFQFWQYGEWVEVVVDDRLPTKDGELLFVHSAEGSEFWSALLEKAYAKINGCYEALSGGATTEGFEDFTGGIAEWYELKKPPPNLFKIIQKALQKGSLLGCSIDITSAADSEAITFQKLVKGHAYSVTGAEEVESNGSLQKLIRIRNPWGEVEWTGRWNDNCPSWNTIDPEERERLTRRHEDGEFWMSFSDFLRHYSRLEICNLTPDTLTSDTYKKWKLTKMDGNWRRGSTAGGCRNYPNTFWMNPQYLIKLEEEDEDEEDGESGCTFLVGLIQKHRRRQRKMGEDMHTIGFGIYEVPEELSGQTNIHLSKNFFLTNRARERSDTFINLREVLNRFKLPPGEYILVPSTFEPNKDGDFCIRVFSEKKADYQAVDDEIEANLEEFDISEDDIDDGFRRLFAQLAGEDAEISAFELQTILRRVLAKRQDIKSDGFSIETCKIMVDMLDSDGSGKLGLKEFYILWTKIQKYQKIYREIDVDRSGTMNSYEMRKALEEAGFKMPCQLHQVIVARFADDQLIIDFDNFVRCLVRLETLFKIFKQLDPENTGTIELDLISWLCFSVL
Sequence (P04632 1-268 partner): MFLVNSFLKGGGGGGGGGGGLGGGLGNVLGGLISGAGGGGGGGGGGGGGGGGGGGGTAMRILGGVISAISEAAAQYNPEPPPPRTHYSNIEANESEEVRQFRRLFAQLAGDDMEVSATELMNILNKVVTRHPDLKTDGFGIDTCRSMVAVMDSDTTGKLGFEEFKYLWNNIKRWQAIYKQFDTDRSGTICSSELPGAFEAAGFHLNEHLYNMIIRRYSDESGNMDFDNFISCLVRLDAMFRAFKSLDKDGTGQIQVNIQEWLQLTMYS
Experiment: Calpain inhibition, continuous fluorescence (FRET substrate) assay, calpain 2
Details: SensoLyte 520 FRET substrate, 25C
pIC50: −log10 of the molar value.
measured.parameter: pIC50

// worked examples, pIC50 included
O=C(NC(Cc1ccccc1)C(=O)c1nc[nH]n1)c1nsnc1-c1ccccc1 (centres unmarked) [Compound 104] ... < 5.00
Cn1cc(C(=O)NC(Cc2ccccc2)C(=O)C(N)=O)c(-c2cccc3oc(=O)[nH]c23)n1 (centres unmarked) [Compound 35] ... > 5.52
NC(=O)C(=O)C(Cc1ccccc1)NC(=O)c1cn(C(F)F)nc1-c1cccc2ccncc12 (centres unmarked) [Compound 22] ... > 5.52

Prompt: Can you look up the measured pIC50 of Cn1cc(C(=O)NC(Cc2ccccc2)C(=O)C(N)=O)c(-n2cnc3cc(F)ccc32)n1 (centres unmarked) [Compound 48] for me?
Response: > 5.52

Prompt: Can you look up the measured pIC50 of O=C(NC(Cc1ccccc1)C(=O)Nc1ncco1)c1nsnc1-c1ccccc1 (centres unmarked) [Compound 57] for me?
Response: < 5.00

Prompt: Can you look up the measured pIC50 of Cc1occc1-c1nn(C)cc1C(=O)NC(Cc1ccccc1)C(=O)C(N)=O (centres unmarked) [Compound 28] for me?
Response: > 5.52

Prompt: Can you look up the measured pIC50 of Cn1cc(C(=O)NC(Cc2ccccc2)C(=O)C(N)=O)c(-c2ccoc2Cl)n1 (centres unmarked) [Compound 19] for me?
Response: > 5.52

Prompt: Can you look up the measured pIC50 of Cn1cc(C(=O)NC(Cc2ccccc2)C(=O)C(N)=O)c(-c2cccc3cn(C)nc23)n1 (centres unmarked) [Compound 99] for me?
Response: > 5.52
